Reported pIC50 is given for each of the following binders.
- Assayed System: HLA-DR DRB1*1302 (human)
- Experiment Description: competition vs 125I-labeled peptide, purified HLA
The scale used: pIC50 is minus the common logarithm of the concentration in molar units.

Some binders with known pIC50 results, for comparison:
{"columns": ["Binder", "pIC50"],
 "data": [
  ["PTTYISVGTSTLNQRL (modifications not checked) [Flu.HA.210]", 6.02],
  ["KSSFFRNVVWLIKKN (modifications not checked) [Flu.HA.156]", 7.70],
  ["IYQILSIYSTVASSLA (modifications not checked) [Flu.HA.529]", 7.89],
  ["VSLVKSDQICIGYHA (modifications not checked) [Flu.HA.11]", 6.76],
  ["TRPILSPLTKGILGF (modifications not checked) [Flu.M1.51]", 6.53]
]}

Kindly review the next binder as well.
What measured pIC50 goes with ILSIYSTVASSLALAI (modifications not checked) [Flu.HA.532] ?
8.12

All values here come from patent US20080032921A1.
